Test: signal inhibition in parental CHO-K1 cells, counter-screen for OX1R antagonist project, cell-based, HTRF (AID 493232);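 note: 0% = agonist challenge with vehicle and 100% = vehicle alone without agonist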
Settings: HTRF counterscreen, at 6.6 µM, active compounds read high
The campaign covered roughly 1,800 compounds. About 860 (48%) were called active. So high a share suggests a set chosen from earlier hits. The list is a sample of the results.
Each entry below carries its recorded inhibition.
readout type: inhibition (%)

| molecule | readout type | readout value |
| --- | --- | --- |
| N#CC(=C1SC=CS1)c1nc(-c2ccccc2)cs1 | inhibition | 14.8 |
| Nc1nc(-c2sc3nc4c(cc3c2N)CCCC4)nc(N2CCOCC2)n1 | inhibition | 16.2 |
| COc1ccc(S(=O)(=O)NC(C)c2ccccc2)cc1C(=O)N1CCCCC1 (stereo unspecified) | inhibition | -4.56 |
| CCOc1ccc(/C=C/C(=O)OCC(=O)c2ccccc2OC)cc1OC | inhibition | 7.57 |
| Cc1cc(=O)oc(C)c1C(=O)NCCN(C)Cc1ccccc1 | inhibition | 4.29 |
| Cn1cnnc1Sc1ccc(S(C)(=O)=O)cc1[N+](=O)[O-] | inhibition | 50.5 |

###

Experiment: signal inhibition in parental CHO-K1 cells, counter-screen for OX1R antagonist project, cell-based, HTRF (AID 493232);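 note: 0% = agonist challenge with vehicle and 100% = vehicle alone without agonist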
Conditions: HTRF counterscreen, at 6.6 µM, active compounds read high
Out of some 1,800 compounds screened, about 860 (48%) were called active. The set was probably picked from earlier hits. Not all results are given here.
Each entry below carries its recorded inhibition.

| input smiles | units text | inhibition |
| --- | --- | --- |
| CC(=O)Nc1ccc(Nc2c([N+](=O)[O-])cc(S(C)(=O)=O)cc2[N+](=O)[O-])cc1 | % | 71 |
| COC(=O)c1sccc1NC(=O)CSc1ccccc1NS(=O)(=O)c1cc(Cl)ccc1Cl | % | 12.9 |
| CC(C)(C)NC(=O)Cn1cnc2cc([N+](=O)[O-])ccc2c1=O | % | 73.7 |
| O=C(Nc1nnc(C2=COCCO2)o1)c1ccc([N+](=O)[O-])s1 | % | 52.2 |

###

Assay: signal inhibition in parental CHO-K1 cells, counter-screen for OX1R antagonist project, cell-based, HTRF (AID 493232);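 note: 0% = agonist challenge with vehicle and 100% = vehicle alone without agonist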
Conditions: HTRF counterscreen, at 6.6 µM, active compounds read high
The campaign covered roughly 1,800 compounds. About 860 (48%) were called active. So high a share suggests a set chosen from earlier hits. The list is a sample of the results.

| molecule | units text | inhibition |
| --- | --- | --- |
| O=C(NCc1ccco1)C1CCCN(S(=O)(=O)c2cccc3nonc23)C1 (stereo not drawn) | % | 19.7 |
| COc1cccc(C(=O)NC(=O)Nc2nc(C)cc(C(F)(F)F)n2)c1 | % | 0.24 |
| CC(=O)Oc1ccc(C(C)=O)c2c1OCCO2 | % | 0.1 |
| CC(NC(=O)c1cccc2ccccc12)c1ccc2c(c1)CCCC2 (stereo not drawn) | % | 9.37 |
| COc1cc(C(=S)N2CCOCC2)cc(OC)c1OC(=O)c1ccc([N+](=O)[O-])cc1[N+](=O)[O-] | % | 8.29 |
| Cc1cc(C(=O)NC2CCCc3c2cnn3-c2cccc(C)c2C)c(C)o1 (stereo not drawn) | % | 9.36 |
| CC(=O)c1cccc(NC(=O)C2CCCN2S(=O)(=O)c2cccc3nsnc23)c1 (stereo not drawn) | % | 33 |
| Cc1oc2c(c1C(=O)N1CCOCC1)C(=O)c1ccccc1C2=O | % | 104 |
| COc1ccc2oc(=O)c(C(=O)NCc3ccccn3)cc2c1 | % | 47.5 |
| C[n+]1ccccc1C1CCCC/C1=N\Nc1ccc([N+](=O)[O-])cc1[N+](=O)[O-] (stereo not drawn) | % | 9.46 |
| CSCCC(NC(=O)c1cc([N+](=O)[O-])cc([N+](=O)[O-])c1)c1nc2ccccc2[nH]1 (stereo not drawn) | % | 24.7 |
| C=CCn1c(SCC(=O)Nc2nc3ccccc3s2)nnc1-c1ccccc1O | % | -0.28 |
| Cc1cccc(NC(=O)Nc2cccc(Oc3c(F)c(F)c(F)c(F)c3F)c2)c1 | % | 14.7 |
| O=C(O)CCC(=O)Nc1nc2ccc([N+](=O)[O-])cc2s1 | % | 47.7 |
| Cc1ccc(Nc2nc(CSc3nnnn3-c3ccccc3)cc(=O)[nH]2)cc1 | % | 1.23 |
| COc1ccc(N2CC(C(=O)NCCN3C(=O)S/C(=C\c4cccnc4)C3=O)CC2=O)c(OC)c1 (stereo not drawn) | % | 56.9 |
| COc1ccc(N(C)C(=O)CCS(=O)(=O)c2cccc3nsnc23)cc1 | % | 56 |
| CC(=O)N/N=C/c1cc2c(cc1[N+](=O)[O-])OCO2 | % | 60.3 |
| CCn1c(SCC(=O)c2ccc3ccccc3c2)nnc1-c1cccs1 | % | 7.75 |
| COc1cccc(/C=N/Nc2cc(C)nc(-c3ccccc3O)n2)c1O | % | 15.3 |
| c1ccc(-c2nc(NCc3ccco3)c3ccccc3n2)cc1 | % | 8.16 |
| O=C(Oc1ccccc1C(=S)N1CCCCC1)c1cc([N+](=O)[O-])cc([N+](=O)[O-])c1 | % | 56.2 |
| O=C(Nc1ccc2sc3ccccc3c(=O)c2c1)c1ccccc1Cl | % | -3.67 |
| Cc1ccc2c(c1)nnc1nnc(SCC(=O)O)n12 | % | 113 |
| O=C(Nc1ccccc1Cl)/C(Cl)=C(\Cl)S(=O)c1ccccc1 (stereo not drawn) | % | -27.6 |
| Nc1[nH][nH]c(=O)c1N=Nc1ccc2c(c1)OCO2 | % | 52.9 |
| COC(=O)N/N=C/c1c[n+]([O-])c2ccccc2[n+]1[O-] | % | 97.3 |
| Cc1cccc(NS(=O)(=O)c2cccc(C(=O)NNC(=O)c3ccccc3O)c2)c1 | % | 4.72 |
| COc1ccc2sc(-c3ccc(N(C)C)cc3)c(C#CCO)c2c1 | % | 14.2 |
| COc1ccc2[nH]c(=O)c(CNc3ccc(C)c(C)c3)cc2c1 | % | 33.7 |
| O=C(Nc1cccc2cccnc12)c1cccc(N2C(=O)CCC2=O)c1 | % | 8.23 |
| COC(=O)CNC(=O)c1ccc2c(c1)S(=O)(=O)c1ccccc1C2=O | % | 70.6 |
| Cn1c(N)c(C(=O)COC(=O)c2ccc3ccccc3c2)c(=O)n(C)c1=O | % | 9.11 |
| O=C(N/N=C/c1sc(N2CCCCC2)nc1-c1cccs1)c1cccnc1 | % | 6.55 |
| COc1cc2ccccc2cc1C(=O)Nc1ccc(N2CCOCC2)cc1 | % | 16.2 |
| N#Cc1nc(-c2cccc3ccccc23)oc1N | % | -17.8 |
| COc1cccc(/C=N/NC(=O)c2[nH]nc3c2CCc2ccccc2-3)c1O | % | -15.5 |
| O=C(NC(Cc1c[nH]c2ccccc12)C(=O)N/N=C/c1ccc(Br)cc1)c1cccs1 (stereo not drawn) | % | 3.77 |
| CCC(=O)N(C)C(c1ccccc1Cl)c1nnnn1-c1c(C)cccc1C (stereo not drawn) | % | 0.65 |
| Cc1ccc([C@@H]2CC=C(C(=O)O)[C@H](c3cccc(Cl)c3)N2S(=O)(=O)c2ccc(C)cc2)cc1 | % | 4.59 |
| CCOc1ccc(NC(=O)CCS(=O)(=O)c2cccc3nsnc23)cc1 | % | 35.3 |
| S=c1[nH]nc(-c2cc(-c3ccccc3)n[nH]2)n1/N=C/c1c2ccccc2cc2ccccc12 | % | 6.53 |
| O=C(Cc1ccccc1)N1CCN(S(=O)(=O)c2ccc([N+](=O)[O-])cc2)CC1 | % | 28.9 |
